protocol_summary: chemical genetic growth profiling, strain panel (AID 1159580);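 further: tested at 20 µM; growth read once vehicle control cultures reached saturation at 30 °C; 1 = growth at the plate median or of vehicle wells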
condition_description: S. cerevisiae deletion strains, growth OD, locus YLL026W, stronger effect = lower value
In all, about 5,500 compounds went through this assay and about 2,000 (36%) were called active. About 18% were inconclusive and are not listed. The list shows a part of the results.
Lab note: compare normalized growth with 1, writing satisfied if less and not satisfied if equal or more.

{"molecule": "CC(=O)O[C@H]1CC2CCC3C(CC[C@@]4(C)C3C[C@H]([N+]3(C)CCCCC3)[C@@H]4OC(C)=O)[C@@]2(C)C[C@@H]1[N+]1(C)CCCCC1 (stereo partly specified)", "class_label": "not satisfied"}
{"molecule": "CC(=O)Oc1ccc2c(c1)CCC1C2CCC2(C)C1CC(OC(C)=O)C2OC(C)=O (stereo unspecified)", "class_label": "satisfied"}

Next:
Please determine if "O=C1c2ccccc2-c2cccc3cccc1c23" is below 1 in terms of normalized growth.
satisfied

* * *

protocol_summary: chemical genetic growth profiling, strain panel (AID 1159580)
condition_description: S. cerevisiae deletion strains, growth OD, locus YDL035C, strain GPR1
The whole screen tested about 5,500 compounds, of which about 2,000 (36%) were called active. Roughly 18% stayed inconclusive and do not appear here. No stated cut-off is given here; in the data, active means normalized growth mostly below about 0.91 (no sharp cut-off); inconclusive means no clear call, values can overlap the other calls; inactive means mostly above about 0.92. The list shows a part of the results.
Your reply should match one of these outcome classes. y = active, n = inactive

A selection of reference data follows.
{"molecule": "COc1cc2ccc(=O)oc2c(O)c1O", "class_label": "n"}
{"molecule": "Nc1ncnc2c1ncn2[C@@H]1O[C@H](CO)[C@@H](O)[C@@H]1O", "class_label": "n"}
{"molecule": "CC(C)CCCC(C)C1CCC2C3CCC4CC(=O)CCC4(C)C3CCC12C (stereo not drawn)", "class_label": "n"}

Per the records of this test, what outcome belongs to "CC1(C)C=Cc2c(cc3occ(-c4ccc5c(c4)OCO5)c(=O)c3c2O)O1" ?
n

For "O=c1cc(-c2ccc(O)cc2)oc2cc(O[C@@H]3O[C@H](CO)[C@@H](O)[C@H](O)[C@H]3O[C@@H]3OC[C@](O)(CO)[C@H]3O)cc(O)c12" then?
n

For "COP(=S)(OC)SCn1nnc2ccccc2c1=O" then?
n

For "CC(C)=CCc1c(O)cc2occ(-c3ccc4c(c3)OCO4)c(=O)c2c1O" then?
n

For "CC1(C)C[C@@H]2C(=O)CC[C@H]3O[C@]3(C)CC[C@H]21" then?
n

* * *

protocol_summary: chemical genetic growth profiling, strain panel (AID 1159580)
condition_description: S. cerevisiae deletion strains, growth OD, locus YOL078W, strain AVO1, stronger effect = lower value
About 2,000 (36%) of roughly 5,500 compounds were called active. Inconclusive results (about 18%) are left out. The list shows a part of the results.
Give measured normalized growth for each item. Keep answers brief.

Below are worked cases with known answers.
{"compound": "COc1cccc(C(=O)C(C#N)=C(SC)SC)c1", "recorded_measurement": "0.868 (active)"}
{"compound": "CCOC(=O)C(NC(C)=O)(Nc1ccc(F)c(Cl)c1)C(F)(F)F (stereo unspecified)", "recorded_measurement": "0.981 (inactive)"}
{"compound": "CCOC(=O)C(O)(c1ccc(NC(=O)Nc2ccc(Cl)cc2)cc1)C(F)(F)F (stereo unspecified)", "recorded_measurement": "0.982 (inactive)"}
{"compound": "FC(F)(F)c1ccc(C2Sc3ccccc3N=C3c4ccccc4CC32)cc1 (stereo unspecified)", "recorded_measurement": "0.998 (inactive)"}

Working through the 2 compounds below one at a time, give normalized growth for each.
1. Cc1nc(C(F)(F)F)ccc1C(=O)Sc1nnc(-c2ccc(C(F)(F)F)nc2C)o1
2. CSC(SC)=C(C#N)C(=O)c1ccccc1Cl

0.949 (inactive)
0.573 (active)

* * *

protocol_summary: chemical genetic growth profiling, strain panel (AID 1159580);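 further: tested at 20 µM; growth read once vehicle control cultures reached saturation at 30 °C; 1 = growth at the plate median or of vehicle wells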
condition_description: S. cerevisiae deletion strains, growth OD, locus YDR392W, strain spt3
Screen size: about 5,500 compounds; about 2,000 (36%) were called active. Not shown: some 18% with an inconclusive outcome. Cut-off read from the data, not from the text of the source: active = normalized growth mostly below about 0.91 (no sharp cut-off); inconclusive = no clear call, values can overlap the other calls; inactive = mostly above about 0.92. Some of the results follow.
Your reply should match one of these outcome classes. active, inactive

A selection of reference data follows.
{"compound": "COc1cc(OC)c2c(c1Cl)OC1(C2=O)C(O)=CC(=O)CC1C (stereo unspecified)", "class_label": "inactive"}
{"compound": "CNC(=O)CSP(=S)(OC)OC", "class_label": "inactive"}
{"compound": "Cn1c(=O)[nH]c(=O)c2[nH]cnc21", "class_label": "inactive"}
{"compound": "COP(=S)(OC)SCn1nnc2ccccc2c1=O", "class_label": "inactive"}
{"compound": "CC(=O)OC1CCC2C3CCc4cc(O)ccc4C3CCC12C (stereo unspecified)", "class_label": "active"}
{"compound": "CC(C)(O)CC[C@@H](O)[C@](C)(O)C1CC[C@@]2(O)C3=CC(=O)C4C[C@@H](O)[C@@H](O)C[C@]4(C)C3CC[C@]12C (stereo partly specified)", "class_label": "inactive"}
{"compound": "O=c1c(-c2ccc3c(c2)OCO3)coc2cc(O)ccc12", "class_label": "inactive"}
{"compound": "COc1cc(O)c(C(C)=O)c(OC)c1", "class_label": "inactive"}

Per the records of this test, what outcome belongs to "COc1cc(OC)c2c(=O)c(-c3ccc4c(c3)OCO4)coc2c1" ?
inactive

For "CC(C)=CCc1c(O)cc2occ(-c3ccc4c(c3)OCO4)c(=O)c2c1O" then?
active

For CSCCC(NC=O)C(=O)NC(CC(C)C)C(=O)NC(Cc1ccccc1)C(=O)O (stereo unspecified) then?
inactive

* * *

Give measured normalized growth for each item. Keep answers brief.
protocol_summary: chemical genetic growth profiling, strain panel (AID 1159580);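 further: tested at 20 µM; growth read once vehicle control cultures reached saturation at 30 °C; 1 = growth at the plate median or of vehicle wells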
condition_description: S. cerevisiae deletion strains, growth OD, locus YJL134W, strain LCB3, stronger effect = lower value
The whole screen tested about 5,500 compounds, of which about 2,000 (36%) were called active. About 18% were inconclusive and are not listed. The list shows a part of the results.
One number for each entry.

Below are worked cases with known answers.
{"molecule": "CCNc1nc(Cl)nc(NC(C)C)n1", "normalized growth": 1.03}
{"molecule": "COc1cc2ccc(=O)oc2cc1O", "normalized growth": 0.982}
{"molecule": "CC(=O)N[C@@H](CC(=O)O)C(=O)O", "normalized growth": 1.01}

Working through the 7 molecules below one at a time, give normalized growth for each.
1. O=c1ccc2cc(O[C@@H]3O[C@H](CO)[C@@H](O)[C@H](O)[C@H]3O)c(O)cc2o1
2. Fc1ccc(C(c2ccc(F)cc2)N2CCN(C/C=C/c3ccccc3)CC2)cc1
3. COc1cc2ccc(=O)oc2c(O)c1O
4. CC(C)=CCOc1cc2oc(=O)ccc2cc1O
5. c1coc(CNc2ncnc3nc[nH]c23)c1
6. CC(=O)OC1CCC23C(=O)OC45CCC(C6=CC(=O)OC6)C4(C)CCC2C5CCC3(O)C1 (configuration not stated)
7. O=c1[nH]cnc2nc[nH]c12

1: 1.01; 2: 0.983; 3: 1; 4: 0.963; 5: 0.997; 6: 1.01; 7: 0.994

Working through the 2 molecules below one at a time, give normalized growth for each.
1. CC(C)=CCOc1c2occc2cc2ccc(=O)oc12
2. COc1cc2ccc(=O)oc2c(OC)c1OC

[0.895, 1.01]

* * *

protocol_summary: chemical genetic growth profiling, strain panel (AID 1159580);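 further: tested at 20 µM; growth read once vehicle control cultures reached saturation at 30 °C; 1 = growth at the plate median or of vehicle wells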
condition_description: S. cerevisiae deletion strains, growth OD, locus YJL095W, strain BCK1 (second series), stronger effect = lower value
Screen size: about 5,500 compounds; about 2,000 (36%) were called active. Inconclusive results (about 18%) are left out. Some of the results follow.
measurement_kind: normalized growth
Numbers only.

{"molecule": "CCS(=O)(=O)CCn1c([N+](=O)[O-])cnc1C", "recorded_measurement": 0.989}

Working through the 4 molecules below one at a time, give normalized growth for each.
1. Cc1nccc2c1[nH]c1ccccc12
2. O=c1[nH]c2ccccc2n1C1CCN(CCCC(c2ccc(F)cc2)c2ccc(F)cc2)CC1
3. COc1cc(OC)c2c(=O)c(-c3ccc4c(c3)OCO4)coc2c1
4. CCCC(=O)Nc1ncnc2c1ncn2C1O[C@@H]2COP(=O)(O)O[C@H]2[C@H]1OC(=O)CCC (stereo partly specified)

[0.972, 0.973, 0.984, 0.979]

Working through the 3 molecules below one at a time, give normalized growth for each.
1. Cn1c([N+](=O)[O-])cnc1COC(N)=O
2. COc1ccc2[nH]cc(CCNC(C)=O)c2c1
3. CC(C)=CCC1=C(O)c2ccccc2C(=O)C1=O

1: 1.01; 2: 0.971; 3: 0.675

Working through the 8 molecules below one at a time, give normalized growth for each.
1. COC(=O)C[C@H]1C(C)(C)[C@@H](OC(C)=O)[C@@H]2CC3C4CC(=O)O[C@@H](c5ccoc5)[C@]4(C)CCC3[C@@]1(C)C2=O (stereo partly specified)
2. Nc1ncnc2c1ncn2[C@@H]1O[C@H](CO)[C@@H](O)[C@@H]1O
3. COc1cc2c(cc1-c1coc3c4c(c(OC)cc3c1=O)OC(C)(C)C=C4)OCO2
4. O=C(CCCN1CC=C(n2c(=O)[nH]c3ccccc32)CC1)c1ccc(F)cc1
5. CC1(C)C[C@@H]2C(=O)CC[C@H]3O[C@]3(C)CC[C@H]21
6. Cn1nnnc1SCC1=C(C(=O)O)N2C(=O)C(NC(=O)C(OC=O)c3ccccc3)C2SC1 (stereo unspecified)
7. CC(C(=O)O)c1ccc(N2Cc3ccccc3C2=O)cc1 (stereo unspecified)
8. CC1=C(C(=O)O)N2C(=O)[C@@H](NC(=O)[C@H](N)C3=CCC=CC3)C2SC1 (stereo partly specified)

1
1.01
0.974
0.996
1.04
1.01
0.994
1.02

Working through the 5 molecules below one at a time, give normalized growth for each.
1. COc1c2c(cc3occ(-c4ccc5c(c4)OCO5)c(=O)c13)OC(C)(C)C=C2
2. COC(=O)C1=CO[C@@H](O[C@@H]2O[C@H](CO)[C@@H](O)[C@H](O)[C@H]2O)[C@@H]2[C@@H](C)[C@@H](O)C[C@H]12
3. CC1(C)C=Cc2c(cc3occ(-c4ccc5c(c4)OCO5)c(=O)c3c2O)O1
4. CCNc1nc(Cl)nc(NC(C)C)n1
5. COc1ccc2c(=O)c(-c3cc4c(cc3OC)OCO4)coc2c1

1: 0.997; 2: 1; 3: 0.918; 4: 1; 5: 1.01
